- Test system: FLT4
pKd: −log10 of the molar value.

{"columns": ["smiles text", "target system", "pKd"],
 "data": [
  ["Cl.O=S(=O)(c1cccc(F)c1)c1ccc(Nc2ncnc3cc(Br)sc23)cc1Cl", "FLT4", "< 5.00"]
]}

* * *

Listing: Kd of selected molecules
- System: MEK5
- Construct: gene MAP2K5
test readout: Kd

{"columns": ["smiles text", "test readout", "value"],
 "data": [
  ["Cl.c1ccc(Cn2ncc3cc(Nc4ncnc5ccccc45)ccc32)cc1", "Kd", "90 nM"],
  ["Cl.c1ccc(Cn2ccc3cc(Nc4ncnc5ccccc45)ccc32)cc1", "Kd", "770 nM"],
  ["Cn1ccc2ncnc(Nc3ccc(Oc4cccc(Cl)c4)c(Cl)c3)c21", "Kd", "25 nM"],
  ["Oc1ccc2ncnc(Nc3ccc(OCc4ccccc4)cc3)c2c1", "Kd", "82 nM"],
  ["CCc1nc(-c2cccc(N(C)S(=O)(=O)c3ccccc3)c2)c(-c2ccnc(Nc3ccc(N4CCN(C(C)=O)CC4)nc3)n2)s1", "Kd", "7 nM"],
  ["COc1ccc(-c2oc3ncnc(N)c3c2-c2ccc(OC)cc2)cc1", "Kd", "3000 nM"],
  ["OCCOCCn1ccc2ncnc(Nc3ccc(Oc4cccc(Cl)c4)c(Cl)c3)c21", "Kd", "200 nM"],
  ["COc1cc2c(Nc3cccc(NC(=O)c4ccccc4)c3)ncnc2cc1OCCCN1CCOCC1", "Kd", "940 nM"],
  ["O=C(Nc1n[nH]c2nc(-c3ccco3)c(Br)cc12)c1ccc(CN2CCCC2)cc1.O=C(O)[C@H](O)[C@@H](O)C(=O)O", "Kd", "550 nM"]
]}

* * *

Listing: %Inh of selected compounds
- Test system: SgK110
- measurement context: concentration: 1 μM, replicates: in singlicate; n = 1

{"columns": ["compound", "%Inh [%]"],
 "data": [
  ["O=C(Nc1n[nH]c2nc(-c3ccco3)c(Br)cc12)c1ccc(CN2CCCC2)cc1.O=C(O)[C@H](O)[C@@H](O)C(=O)O [SB-742352]", 50],
  ["COC(=O)c1cccc(NC(=O)NCCNc2ccnc(Nc3ccc(F)cc3)n2)c1 [GSK1379883]", 0],
  ["CCc1nc(-c2cccc(N(C)S(=O)(=O)c3ccccc3)c2)c(-c2ccnc(Nc3ccc(N4CCN(C(C)=O)CC4)nc3)n2)s1 [GSK1645895]", 0],
  ["Oc1ccc2ncnc(Nc3ccc(OCc4ccccc4)cc3)c2c1 [GI262866]", 0],
  ["N#Cc1ccc(Oc2ccc(Nc3ncnc4cc[nH]c34)cc2Cl)cc1", 0],
  ["CCc1nc(-c2cccc(C)c2)c(-c2ccnc(NC(=O)c3ccccc3)c2)s1", 18],
  ["CNc1nccc(-c2c(-c3ccc(F)cc3)ncn2CCCN2CCOCC2)n1 [SB-222516]", 7],
  ["Nc1nccc2scc(-c3ccc4c(c3)CCN4C(=O)Cc3cc(F)ccc3F)c12 [GSK2587663]", 0],
  ["Cc1ccc(O)cc1Nc1cc(C(F)(F)F)nc2ccc(-c3ccncc3)cc12 [GW630823]", 0],
  ["CC(C)(C)c1ccc(-n2cnc3c(N)ncnc32)cc1 [SKF-97263]", 0],
  ["COc1ccc(NC(=O)Nc2ccc(C)c(-c3ccc(C(=O)Nc4ccncc4)cc3)c2)cc1 [GSK1398475]", 0],
  ["CCn1c(-c2ccncc2)nc2cnccc21 [SB-735216]", 0],
  ["COc1ccc(-c2oc3ncnc(N)c3c2-c2ccc(OC)cc2)cc1 [SB-589132]", 0],
  ["Cl.c1ccc(Cn2ncc3cc(Nc4ncnc5ccccc45)ccc32)cc1 [GW273749]", 0]
]}

* * *

- System: PKMYT1
test readout: Kd

{"columns": ["smiles text", "test readout", "value"],
 "data": [
  ["C[C@@H]1CCN(C(=O)CO)C[C@@H]1N(C)c1ncnc2[nH]ccc12", "Kd", "> 10 µM"]
]}

* * *

- Test system: MLK1
- Construct: gene MAP3K9
- measurement context: concentration: 1 μM, replicates: in singlicate; n = 1

{"columns": ["smiles text", "display unit", "%Inh"],
 "data": [
  ["O=C(NCCCN1CCCC1=O)c1cnc(NCc2cc(Cl)ccc2Cl)nc1NC1CCNCC1", "%", 0],
  ["FC(F)(F)c1ccc(-c2cc(-c3c[nH]nc3-c3ccccn3)ccn2)cc1", "%", 10],
  ["Clc1cc(Nc2ncnc3cc[nH]c23)ccc1OCc1ccccn1", "%", 0],
  ["NC(=O)c1sc(-n2cnc3ccccc32)cc1OCc1ccccc1F", "%", 9],
  ["Cl.Cn1ccc(-c2cccc(Nc3ccnc4cc(-c5nccs5)ccc34)c2)n1", "%", 0]
]}

* * *

Listing: %Inh of selected compounds
- System: DRAK2
- Construct: gene STK17B
- measurement context: concentration: 1 μM, replicates: in singlicate; n = 1

{"columns": ["compound", "display unit", "%Inh"],
 "data": [
  ["C[C@@H]1CCN(C(=O)CO)C[C@@H]1N(C)c1ncnc2[nH]ccc12", "%", 13],
  ["CNc1nccc(-c2c(-c3ccc(F)cc3)ncn2C2CCN(C)CC2)n1 [SB-222903]", "%", 0],
  ["CSc1nn2c(=O)cc(N3CCOCC3)nc2n1Cc1cccc(Cl)c1Cl [GSK2347225]", "%", 0],
  ["Oc1ccc2ncnc(Nc3ccc(OCc4ccccc4)cc3)c2c1 [GI262866]", "%", 0],
  ["COC(=O)c1c(-c2ccccc2)c2cc(Cl)ccc2c(=O)n1Cc1ccc(S(C)(=O)=O)cc1", "%", 3],
  ["Fc1cccc(COc2ccc(Nc3ncnc4nn5ccccc5c34)cc2Cl)c1 [GW689066]", "%", 0],
  ["Fc1ccc(-c2ncn(CCCNCc3ccccc3)c2-c2ccncc2)cc1", "%", 0],
  ["Clc1ccc(-c2cc(-c3c[nH]nc3-c3ccccn3)ccn2)cc1 [GW681251]", "%", 0],
  ["CC(C)N1CCC(n2cnc(-c3ccc(F)cc3)c2-c2ccnc(N)n2)CC1 [SB-223132]", "%", 7],
  ["C[C@H]1CC[C@@H](C(=O)Nc2ccccc2)CN1c1cc(-c2ccc3c(N)n[nH]c3c2)nc(N)n1 [GSK2283293]", "%", 64],
  ["O=C(c1ccc(-c2cc(-c3c[nH]nc3-c3ccccn3)ccn2)cc1)N1CCCC1 [GW792479]", "%", 10],
  ["Cl.O=S(=O)(c1cccc(F)c1)c1ccc(Nc2ncnc3cc(Br)sc23)cc1Cl [GSK306886]", "%", 0],
  ["Cc1cccc(-c2nc(Nc3ccc4[nH]nnc4c3)c3ccccc3n2)n1 [GW867587]", "%", 0],
  ["c1ccc(-c2ccc3c(-c4ccnc(Nc5ccc6c(c5)OCCO6)n4)cnn3n2)cc1 [GW818941]", "%", 0],
  ["FC(F)(F)c1ccc(-c2nn3ncccc3c2-c2ccnc(Nc3cccc(C(F)(F)F)c3)n2)cc1 [GW828205]", "%", 18],
  ["Cc1ccc(O)cc1Nc1cc(C(F)(F)F)nc2ccc(-c3ccncc3)cc12 [GW630823]", "%", 11],
  ["CN1c2ccc(-c3ccc(C(=O)NCCO)cc3)cc2-c2[nH]ncc2S1(=O)=O", "%", 29],
  ["Fc1cccc(COc2ccc(Nc3ncnc4cc[nH]c34)cc2Cl)c1", "%", 6]
]}

* * *

Listing: %Inh of selected compounds
- Tested on: LOK
- Construct: gene STK10
- measurement context: concentration: 1 μM, replicates: in singlicate; n = 1

{"columns": ["compound", "%Inh"],
 "data": [
  ["C[C@H]1CC[C@@H](C(=O)Nc2ccccc2)CN1c1cc(-c2ccc3c(N)n[nH]c3c2)nc(N)n1", "0%"],
  ["Cc1cc(N2CCC(NS(=O)(=O)c3ccc(F)cc3)CC2)nc(Nc2cccc(C#N)c2)n1.O=C(O)C(F)(F)F", "0%"],
  ["Cn1ccc2ncnc(Nc3ccc(Oc4cccc(Cl)c4)c(Cl)c3)c21", "55%"],
  ["CCC(CC)(CC)n1cnc2c(N)ncnc21", "23%"],
  ["Fc1ccc(Nc2nccc(-c3c(-c4ccc(Cl)cc4)nn4ncccc34)n2)cc1F", "28%"],
  ["Cl.Fc1ccccc1COc1ccc(Nc2ncnc3ccc(-c4nnc(C(F)(F)F)o4)cc23)cc1Cl", "0%"],
  ["O=C(c1ccc(-c2cc(-c3c[nH]nc3-c3ccccn3)ccn2)cc1)N1CCCC1", "0%"],
  ["CC(C)(C)OC(=O)NC1CCCN(c2cc(-c3ccc4c(N)n[nH]c4c3)nc(N)n2)C1 (centres unmarked)", "0%"]
]}

* * *

- Test system: ERK5
- Construct: gene MAPK7
- measurement context: concentration: 1 μM, replicates: in singlicate; n = 1
Listing: %Inh of selected molecules

{"columns": ["molecule", "target system", "%Inh / %"],
 "data": [
  ["Clc1cc(Nc2ncnc3cc[nH]c23)ccc1OCc1ccccn1", "ERK5", 13],
  ["NC(=O)c1sc(-n2cnc3ccccc32)cc1OCc1ccccc1F [GSK1024306]", "ERK5", 0],
  ["CCc1nc(-c2cccc(C)c2)c(-c2ccnc(NC(=O)c3ccccc3)c2)s1", "ERK5", 9],
  ["O=C(Nc1ccccc1F)NC1CCN(c2ccnc(Nc3ccc(F)cc3)n2)C1 (stereo not drawn) [GSK1379722]", "ERK5", 0],
  ["CS(=O)(=O)CCNCc1ccc(-c2ccc3ncnc(Nc4ccc(OCc5ccccc5)c(Cl)c4)c3c2)o1.Cl [GW574783]", "ERK5", 0],
  ["CSc1nn2c(=O)cc(N3CCOCC3)nc2n1Cc1cccc(Cl)c1Cl [GSK2347225]", "ERK5", 0],
  ["Cl.Cn1ccc(-c2cccc(Nc3ccnc4cc(-c5nccs5)ccc34)c2)n1 [GW525701]", "ERK5", 0],
  ["Nc1n[nH]c2nnc(-c3ccccc3)cc12 [SB-517389]", "ERK5", 0],
  ["Fc1cccc(COc2ccc(Nc3ncnc4sc(-c5ccc[nH]5)cc34)cc2Cl)c1 [GW707818]", "ERK5", 6]
]}
